Assay: Induction of hemolysis in human erythrocytes incubated for 1 hr by microtiter plater reader analysis
Format: toxicity, cell-based, Erythrocyte
For each record, write down the corresponding HC50 at 1 h.

- CCCCCCCCCCNC(=O)c1ccc(CN[C@@]2(C)C[C@H](O[C@H]3[C@H](Oc4c5cc6cc4Oc4ccc(cc4Cl)[C@@H](O)[C@@H](NC(=O)[C@@H](CC(C)C)NC)C(=O)N[C@@H](CC(N)=O)C(=O)N[C@H]6C(=O)N[C@H]4C(=O)N[C@H](C(=O)N[C@H](C(=O)O)c6cc(O)cc(O)c6-c6cc4ccc6O)[C@H](O)c4ccc(c(Cl)c4)O5)O[C@H](CO)[C@@H](O)[C@@H]3O)O[C@@H](C)[C@H]2O)cc1: 62.5 µM
- CCCCCCCCCCNC(=O)C[N+](C)(C)CCCNC(=O)c1ccc(CN[C@@]2(C)C[C@H](O[C@H]3[C@H](Oc4c5cc6cc4Oc4ccc(cc4Cl)[C@@H](O)[C@@H](NC(=O)[C@@H](CC(C)C)NC)C(=O)N[C@@H](CC(N)=O)C(=O)N[C@H]6C(=O)N[C@H]4C(=O)N[C@H](C(=O)N[C@H](C(=O)O)c6cc(O)cc(O)c6-c6cc4ccc6O)[C@H](O)c4ccc(c(Cl)c4)O5)O[C@H](CO)[C@@H](O)[C@@H]3O)O[C@@H](C)[C@H]2O)cc1: > 250 µM

Now for a further compound.
IN: Supply recorded HC50 at 1 h for CCCCCCNC(=O)C[N+](C)(C)CCCNC(=O)c1ccc(CN[C@@]2(C)C[C@H](O[C@H]3[C@H](Oc4c5cc6cc4Oc4ccc(cc4Cl)[C@@H](O)[C@@H](NC(=O)[C@@H](CC(C)C)NC)C(=O)N[C@@H](CC(N)=O)C(=O)N[C@H]6C(=O)N[C@H]4C(=O)N[C@H](C(=O)N[C@H](C(=O)O)c6cc(O)cc(O)c6-c6cc4ccc6O)[C@H](O)c4ccc(c(Cl)c4)O5)O[C@H](CO)[C@@H](O)[C@@H]3O)O[C@@H](C)[C@H]2O)cc1 here.
OUT: > 250 µM
